Parameter IC50: see the listing below.
TESTED ON: 5-HT2c (Homo sapiens, UniProt P28335)
Construct: purchased Euroscreen/BioSignal Packard Inc
Sequence (P28335 33-458): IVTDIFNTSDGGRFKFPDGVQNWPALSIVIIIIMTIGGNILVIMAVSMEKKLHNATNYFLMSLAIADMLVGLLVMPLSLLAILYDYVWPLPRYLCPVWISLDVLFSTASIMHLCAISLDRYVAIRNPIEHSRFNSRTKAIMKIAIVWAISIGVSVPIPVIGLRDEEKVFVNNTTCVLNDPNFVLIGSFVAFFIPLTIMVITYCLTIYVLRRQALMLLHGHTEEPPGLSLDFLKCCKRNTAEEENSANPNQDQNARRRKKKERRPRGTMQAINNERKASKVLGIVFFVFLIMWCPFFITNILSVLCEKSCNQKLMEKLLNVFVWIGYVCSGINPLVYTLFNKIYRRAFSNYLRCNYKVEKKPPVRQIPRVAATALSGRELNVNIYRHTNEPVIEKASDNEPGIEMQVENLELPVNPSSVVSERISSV
ASSAY PROCEDURE: Radioligand binding, 5-HT2c ([3H]Mesulergine)
EXPERIMENTAL PARAMETERS: Table 4; [3H]Mesulergine 1 nM; read-out: Binding affinity, IC50 (nM) 5-HT2c
# number only, unit nM dropped from output

Some entries whose results are on file:
COc1ccc(C2(C)C(=O)c3c(N4CCNCC4)cc(Cl)cc3N(Cc3ccccc3OC)C2=O)cc1 (stereo not shown)
8050
CCN(CC)c1ccc(C2(C)C(=O)c3c(N4CCN(C)CC4)cc(Cl)cc3N(Cc3ccccc3)C2=O)cc1 (stereo not shown)
4660
COc1ccc(C2(C)C(=O)c3c(N4CCNCC4)cc(Cl)cc3N(Cc3cccnc3)C2=O)cc1 (stereo not shown)
8050
CC1(c2ccc(O)cc2)C(=O)c2c(N3CCNCC3)cc(Cl)cc2N(Cc2ccc3ccccc3c2)C1=O (stereo not shown)
8510

// next entry
Ask | Specify measured IC50 for CC1(c2ccc(N)cc2)C(=O)c2c(N3CCNCC3)cc(Cl)cc2N(Cc2ccccc2)C1=O (stereo not shown) .
Reply | 9880
